Reported inhibition at 15 µM values for the following compounds.
tested on: dengue virus type 2; experiment: Antiviral activity against DENV infected in BHK21 cells assessed as inhibition of virus-induced cytopathic effect at 15 uM; format: functional; conditions: BHK-21
Supply the numeric figure in %, leaving out any unit text.

C#CCn1ccc(=O)[nH]c1=O; -4.6
Cc1ccc(C(=O)OC[C@H]2O[C@@H](n3cc(Cn4ccc(N)nc4=O)nn3)C[C@@H]2OC(=O)c2ccc(C)cc2)cc1; -2.26
Nc1ncnc2c1ccn2Cc1cn([C@H]2C[C@H](O)[C@@H](CO)O2)nn1; 3.43
Nc1ccn(Cc2cn([C@H]3C[C@H](O)[C@@H](CO)O3)nn2)c(=O)n1; 0.95

Prompt: Identify the reported inhibition at 15 µM for the following entry. "C#CCn1ccc2c(Cl)ncnc21"
Response: -0.85

---

system: dengue virus type 2; test: Antiviral activity against DENV infected in BHK21 cells assessed as inhibition of virus-induced cytopathic effect at 15 uM; format: functional; conditions: BHK-21
measured.metric: inhibition at 15 µM (%)
Supply the numeric figure in %, leaving out any unit text.

Some compounds with recorded inhibition at 15 µM:
C#CCn1cnc2c(N)ncnc21; -3.4
Cc1ccc(C(=O)OC[C@H]2O[C@@H](n3cc(Cn4ccc(=O)[nH]c4=O)nn3)C[C@@H]2OC(=O)c2ccc(C)cc2)cc1; 0.82
Cc1ccc(C(=O)OC[C@H]2O[C@@H](n3cc(Cn4ccc5c(Cl)nc(N)nc54)nn3)C[C@@H]2OC(=O)c2ccc(C)cc2)cc1; -2.39
Nc1nc(Cl)c2ccn(Cc3cn([C@H]4C[C@H](O)[C@@H](CO)O4)nn3)c2n1; 2.49
O=C(Nc1ncnc2c1ncn2Cc1cn([C@H]2C[C@H](O)[C@@H](CO)O2)nn1)c1ccccc1; 1.02

Prompt: Identify the reported inhibition at 15 µM for the following entry. "O=c1ccn(Cc2cn([C@H]3C[C@H](O)[C@@H](CO)O3)nn2)c(=O)[nH]1"
Response: 0.75

Prompt: Identify the reported inhibition at 15 µM for the following entry. "Cc1ccc(C(=O)OC[C@H]2O[C@@H](n3cc(Cn4ccc5c(Cl)ncnc54)nn3)C[C@@H]2OC(=O)c2ccc(C)cc2)cc1"
Response: -1.05

Prompt: Identify the reported inhibition at 15 µM for the following entry. "Nc1ncnc2c1ncn2Cc1cn([C@H]2C[C@H](O)[C@@H](CO)O2)nn1"
Response: 1.02

Prompt: Identify the reported inhibition at 15 µM for the following entry. "OC[C@H]1O[C@@H](n2cc(Cn3cnc4c3ncn3ccnc43)nn2)C[C@@H]1O"
Response: 2.23

---

test: Cytotoxicity against YFV infected BHK21 cells at 15 uM; type: cell-based, Mesocricetus auratus; conditions: hamster, bhk-21, 15 µM
Reported Activity values for the following compounds.
Supply the numeric figure in %, leaving out any unit text.

Some compounds with recorded Activity:
C#CCn1ccc(=O)[nH]c1=O; 0.08
C#CCn1cnc2c(N)ncnc21; -7.46
Nc1ncnc2c1ncn2Cc1cn([C@H]2C[C@H](O)[C@@H](CO)O2)nn1; -2.12

Prompt: Identify the reported Activity for the following entry. "C#CCn1ccc2c(Cl)ncnc21"
Response: -19.45

Prompt: Identify the reported Activity for the following entry. "Nc1nc(Cl)c2ccn(Cc3cn([C@H]4C[C@H](O)[C@@H](CO)O4)nn3)c2n1"
Response: 8.55

Prompt: Identify the reported Activity for the following entry. "Nc1ncnc2c1ccn2Cc1cn([C@H]2C[C@H](O)[C@@H](CO)O2)nn1"
Response: 4.48

Prompt: Identify the reported Activity for the following entry. "Nc1ccn(Cc2cn([C@H]3C[C@H](O)[C@@H](CO)O3)nn2)c(=O)n1"
Response: -4.62

Prompt: Identify the reported Activity for the following entry. "O=C(Nc1ncnc2c1ncn2Cc1cn([C@H]2C[C@H](O)[C@@H](CO)O2)nn1)c1ccccc1"
Response: -2.91

Prompt: Identify the reported Activity for the following entry. "OC[C@H]1O[C@@H](n2cc(Cn3cnc4c3ncn3ccnc43)nn2)C[C@@H]1O"
Response: -11.67

Prompt: Identify the reported Activity for the following entry. "O=c1ccn(Cc2cn([C@H]3C[C@H](O)[C@@H](CO)O3)nn2)c(=O)[nH]1"
Response: -4.57
